Cited source: patent US20250263489A1

Exercise: for every item that follows, state its recorded Activation intensity (RLU), PathHunter.
# system: IGF-1 receptor on the cells of the PathHunter IGF1R Functional Assay (DiscoverX) (UniProt P08069 31-1367)
# Sequence (P08069 31-1367): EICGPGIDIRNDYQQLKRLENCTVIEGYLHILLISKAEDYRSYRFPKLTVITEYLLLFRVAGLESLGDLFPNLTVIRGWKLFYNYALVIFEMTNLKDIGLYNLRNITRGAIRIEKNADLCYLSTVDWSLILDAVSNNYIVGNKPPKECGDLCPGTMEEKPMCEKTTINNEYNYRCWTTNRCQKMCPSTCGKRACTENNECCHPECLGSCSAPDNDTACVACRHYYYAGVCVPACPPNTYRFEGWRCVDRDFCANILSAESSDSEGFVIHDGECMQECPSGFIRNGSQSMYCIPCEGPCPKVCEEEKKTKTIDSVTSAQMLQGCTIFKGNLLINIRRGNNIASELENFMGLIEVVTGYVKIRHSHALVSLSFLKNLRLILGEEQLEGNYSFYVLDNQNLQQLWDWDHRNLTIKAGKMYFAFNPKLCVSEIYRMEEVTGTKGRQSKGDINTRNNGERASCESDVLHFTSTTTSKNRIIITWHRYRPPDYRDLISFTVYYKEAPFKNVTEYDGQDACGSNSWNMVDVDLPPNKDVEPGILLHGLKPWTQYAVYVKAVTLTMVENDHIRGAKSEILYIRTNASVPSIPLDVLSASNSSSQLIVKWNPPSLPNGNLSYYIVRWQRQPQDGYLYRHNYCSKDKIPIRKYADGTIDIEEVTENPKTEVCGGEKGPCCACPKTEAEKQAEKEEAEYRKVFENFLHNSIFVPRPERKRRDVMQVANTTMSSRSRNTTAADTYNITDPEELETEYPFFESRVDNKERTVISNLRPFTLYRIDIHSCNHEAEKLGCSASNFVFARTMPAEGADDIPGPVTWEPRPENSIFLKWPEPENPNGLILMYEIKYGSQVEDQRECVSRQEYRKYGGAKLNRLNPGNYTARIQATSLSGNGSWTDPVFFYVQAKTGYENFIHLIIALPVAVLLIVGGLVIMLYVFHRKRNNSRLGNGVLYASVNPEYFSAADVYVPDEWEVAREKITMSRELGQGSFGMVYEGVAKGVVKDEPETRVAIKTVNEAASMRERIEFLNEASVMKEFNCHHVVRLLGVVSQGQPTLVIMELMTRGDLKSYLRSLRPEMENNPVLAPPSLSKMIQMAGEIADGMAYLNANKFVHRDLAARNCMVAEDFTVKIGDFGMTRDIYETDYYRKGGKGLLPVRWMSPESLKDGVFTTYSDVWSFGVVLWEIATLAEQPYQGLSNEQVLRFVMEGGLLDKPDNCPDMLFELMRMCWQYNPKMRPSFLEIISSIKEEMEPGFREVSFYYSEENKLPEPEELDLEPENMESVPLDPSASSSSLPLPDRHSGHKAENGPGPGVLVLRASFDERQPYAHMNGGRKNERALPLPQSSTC
# assay_overview: cell-based or functional assay
Answers are plain numbers, in RLU.

Here's what some known entries look like.
binder | Activation intensity (RLU), PathHunter
FW1_var1 antibody (antibody, V domains shown) VH: QVQLVQSGAEVKKPGASVKVSCKASGYTFTSYWMHWVRQAPGQGLEWMGETNPSNSVTNYAQKFQGRVTLTVDTSTSTAYMELSSLRSEDTAVYYCTIGRGRGFAYWGQGTLVTVSS VL: DIQMTQSPSSVSASVGDRVTITCRASQNINFWLSWCQQKPGKIPKLLIYKASNLHTGVPSRFSGSGSGTDFTLTISSLQPEDFATYYCLQGQSYPYTFGGGTKLEIK | 1600
mouse parent antibody IGF11-16 (antibody, mouse IgG1, kappa, V domains shown) VH: QIQLQQPGAELVKPGASVKLSCKAPGYTFTSYWMHWVKQRPGQGLEWIGETNPSNSVTNYNEKFKSKATLTVDKSSSTAYMQLSSLTSEDSAVYYCTIGRGRGFAYWGQGTLVTVSA VL: DIQMNQSPSSLSASLGDTITITCRASQNINFWLSWCQQKPGNIPKLLIYKASNLHTGVPSRFSGSGSGTDFTLTISSLQPEDIATYYCLQGQSYPYTFGGGTKLEIKR | 2180

# return Activation intensity (RLU), PathHunter for each item in the list
1. FW1_var14 antibody (antibody, V domains shown) VH: QVQLVQSGAEVKKPGASVKVSCKASGYTFTSYWMHWVRQAPGQGLEWMGETNPSNSVTNYAQKFQGRVTLTVDTSTSTAYMELSSLRSEDTATYYCTIGRGRGFAYWGQGTLVTVSS VL: DIQMTQSPSSVSASVGDRVTITCRASQNINFWLSWYQQKPGKAPRLLIYKASNLHTGVPSRFSGSGSGTDFTLTISSLQPEDFATYYCLQGQSYPYTFGGGTKLEIK
2. FW1_var10 antibody (antibody, V domains shown) VH: QVQLVQSGAEVKKPGASVKVSCKASGYTFTSYWMHWVRQAPGQGLEWMGETNPSNSVTNYAQKFQGRVTLTVDTSTSTAYMELSSLRSEDTATYYCTIGRGRGFAYWGQGTLVTVSS VL: DIQMTQSPSSVSASVGDRVTITCRASQNINFWLSWYQQKPGKAPKLLIYKASNLHTGVPSRFSGSGSGTDFTLTISSLQPEDFATYYCLQGQSYPYTFGGGTKLEIK
3. FW2_var2 antibody (antibody, V domains shown) VH: QVQLVQSGAEVKKPGSSVKVSCKASGYTFTSYWMHWVRQAPGQGLEWMGETNPSNSVTNYAQKFQGRVTLTVDKSTSTAYMELSSLRSEDTAVYYCTIGRGRGFAYWGQGTLVTVSS VL: DIQMTQSPSSLSASVGDRVTITCRASQNINFWLSWYQQKPGKIPKLLIYKASNLHTGVPSRFSGSGSGTDFTLTISSLQPEDVATYYCLQGQSYPYTFGGGTKLEIK

Output line:
1: 1340; 2: 1350; 3: 1320

Input line: Tell me the measured Activation intensity (RLU), PathHunter of FW1_var9 antibody (antibody, V domains shown) VH: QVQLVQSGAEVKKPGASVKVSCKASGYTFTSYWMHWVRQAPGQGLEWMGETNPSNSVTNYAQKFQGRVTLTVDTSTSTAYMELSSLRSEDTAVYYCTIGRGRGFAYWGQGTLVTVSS VL: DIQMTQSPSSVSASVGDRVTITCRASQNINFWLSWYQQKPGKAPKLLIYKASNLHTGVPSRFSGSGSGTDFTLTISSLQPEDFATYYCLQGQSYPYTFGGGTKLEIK , please.
Output line: 1450
